Catalogue of log10 of Ki readings, one per entry.
- tgt: T1, matriptase (Charles Craik, UCSF), recombinant (Homo sapiens (Human), UniProt Q9Y5Y6)
- T1 sequence: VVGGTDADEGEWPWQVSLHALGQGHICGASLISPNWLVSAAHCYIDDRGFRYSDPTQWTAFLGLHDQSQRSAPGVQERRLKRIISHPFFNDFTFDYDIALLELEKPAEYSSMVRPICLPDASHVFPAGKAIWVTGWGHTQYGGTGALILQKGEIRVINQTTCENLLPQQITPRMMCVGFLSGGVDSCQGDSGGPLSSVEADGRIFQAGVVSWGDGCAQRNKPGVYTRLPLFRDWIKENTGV
- method: fluorogenic inhibition assay
- Description: […]
Starred links: 1 amine or outer side, 2 acyl side, 3 side chain; linkers in the order of their positions; H or OH if unused. Non-standard residues stand in square brackets, D forms with d. No end group written: not given here. *: point of attachment. kbt‑6‑CONH‑4‑pyridine = ketobenzothiazole-6-CONH-4-pyridine (Kbt-4-pyridinylamide), O=C(Nc1ccncc1)c1ccc2nc(*)sc2c1; Kbt‑6‑CONH = ketobenzothiazole-6-CONH (amide link to Val), O=C(c1ccc2nc([*:1])sc2c1)[*:2]; kbt‑6‑COOH = ketobenzothiazole-6-COOH, O=C(O)c1ccc2nc(*)sc2c1; kbt = C-terminal ketobenzothiazole, c1ccc2sc(*)nc2c1; His(π-Bom) = N[C@@H](Cc1cncn1COCc1ccccc1)C(=O)O; Kbt = ketobenzothiazole, c1ccc2sc(*)nc2c1; Fmoc = O=C(OCC1c2ccccc2-c2ccccc21)*; cmk = not defined here
measuredEndpoint: log10 of Ki (log10 of the value in nM)

binder="H-[His(π-Bom)][dW]LR-kbt (SMILES CC(C)C[C@H](NC(=O)[C@@H](Cc1c[nH]c2ccccc12)NC(=O)[C@@H](N)Cc1cncn1COCc1ccccc1)C(=O)N[C@@H](CCCNC(=N)N)C(=O)c1nc2ccccc2s1) [H-His(Bom)-dWLR-kbt]" measuredendpoint="log10 of Ki" measuredresult=3.18
binder="Fmoc-Met-Arg-kbt [Fmoc-MR-kbt]" measuredendpoint="log10 of Ki" measuredresult=1.79
binder="Ac-SKLR-{kbt‑6‑COOH} (SMILES CC(=O)N[C@@H](CO)C(=O)N[C@@H](CCCCN)C(=O)N[C@@H](CC(C)C)C(=O)N[C@@H](CCCNC(=N)N)C(=O)c1nc2ccc(C(=O)O)cc2s1) [Ac-SKLR(SEQ ID NO: 10)-Kbt-COOH]" measuredendpoint="log10 of Ki" measuredresult=1.74
binder="Ac-SKLR (not fully specified (C-terminus)) [Ac-SKLR(SEQ ID NO: 10)-Kbt-Phe-NH2]" measuredendpoint="log10 of Ki" measuredresult=0.80
binder="Fmoc-Asn-Arg-kbt [Fmoc-NR-kbt]" measuredendpoint="log10 of Ki" measuredresult=1.92
binder="Ac-KQLR-{Kbt‑6‑CONH-Val-NH2} [Ac-KQLR(SEQ ID NO: 1)-Kbt-Val-NH2]" measuredendpoint="log10 of Ki" measuredresult=0.84
binder="Fmoc-Gly-Arg-kbt [Fmoc-GR-kbt]" measuredendpoint="log10 of Ki" measuredresult=-1.00
binder="Fmoc-Leu-Arg-kbt [Fmoc-LR-kbt]" measuredendpoint="log10 of Ki" measuredresult=2.63
binder="Ac-FLFR-Kbt (SMILES CC(=O)N[C@@H](Cc1ccccc1)C(=O)N[C@@H](CC(C)C)C(=O)N[C@@H](Cc1ccccc1)C(=O)N[C@@H](CCCNC(=N)N)C(=O)c1nc2ccccc2s1) [Ac-FLFR(SEQ ID NO: 19)-Kbt]" measuredendpoint="log10 of Ki" measuredresult=0.56
binder="H-Arg-Leu-Arg-{kbt-Val-NH2} [H-RLR-kbt-Val-NH2]" measuredendpoint="log10 of Ki" measuredresult=0.62
binder="Fmoc-Thr-Arg-kbt [Fmoc-TR-kbt]" measuredendpoint="log10 of Ki" measuredresult=3.09
binder="H-Trp-Leu-Arg-{kbt-Val-NH2} [H-WLR-kbt-Val-NH2]" measuredendpoint="log10 of Ki" measuredresult=1.69
binder="Ac-KRLR-{Kbt‑6‑CONH-Val-NH2} [Ac-KRLR(SEQ ID NO: 8)-Kbt-Val-NH2]" measuredendpoint="log10 of Ki" measuredresult=0.87
binder="Fmoc-His-Arg-kbt [Fmoc-HR-kbt]" measuredendpoint="log10 of Ki" measuredresult=1.82
binder="Ac-SKLR (not fully specified (C-terminus)) [Ac-SKLR(SEQ ID NO: 10)-Kbt-Trp-NH2]" measuredendpoint="log10 of Ki" measuredresult=0.57
binder="Ac-SKLR-{kbt‑6‑CONH‑4‑pyridine} [Ac-SKLR(SEQ ID NO: 10)-Kbt-4-pyridinylamide]" measuredendpoint="log10 of Ki" measuredresult=0.60
binder="Fmoc-Trp-Arg-kbt [Fmoc-WR-kbt]" measuredendpoint="log10 of Ki" measuredresult=2.92
binder="Fmoc-Glu-Arg-kbt [Fmoc-ER-kbt]" measuredendpoint="log10 of Ki" measuredresult=0.92
binder="Ac-KQLR-Kbt (SMILES CC(=O)N[C@@H](CCCCN)C(=O)N[C@@H](CCC(N)=O)C(=O)N[C@@H](CC(C)C)C(=O)N[C@@H](CCCNC(=N)N)C(=O)c1nc2ccccc2s1) [Ac-KQLR(SEQ ID NO: 1)-Kbt]" measuredendpoint="log10 of Ki" measuredresult=-0.26
binder="{Cy5.5}-KRLR-cmk (reading uncertain) [Cy5.5-KRLR(SEQ ID NO: 8)-cmk]" measuredendpoint="log10 of Ki" measuredresult=2.24
binder="Fmoc-Arg-Arg-kbt [Fmoc-RR-kbt]" measuredendpoint="log10 of Ki" measuredresult=0.30
binder="Ac-KRLR-Kbt (SMILES CC(=O)N[C@@H](CCCCN)C(=O)N[C@@H](CCCNC(=N)N)C(=O)N[C@@H](CC(C)C)C(=O)N[C@@H](CCCNC(=N)N)C(=O)c1nc2ccccc2s1) [Ac-KRLR(SEQ ID NO: 8)-Kbt]" measuredendpoint="log10 of Ki" measuredresult=-0.27
binder="Fmoc-Ala-Arg-kbt [Fmoc-AR-kbt]" measuredendpoint="log10 of Ki" measuredresult=-0.30

Numbers sourced from patent US20180066015A1.
